Biological target: T1, human soluble urokinase plasminogen activator receptor (suPAR) (human, UniProt Q03405 23-303, limits assumed)
T1 construct: Column head says only 'human'; also called hsuPAR; human suPAR
T1 sequence (Q03405 23-303 limits assumed): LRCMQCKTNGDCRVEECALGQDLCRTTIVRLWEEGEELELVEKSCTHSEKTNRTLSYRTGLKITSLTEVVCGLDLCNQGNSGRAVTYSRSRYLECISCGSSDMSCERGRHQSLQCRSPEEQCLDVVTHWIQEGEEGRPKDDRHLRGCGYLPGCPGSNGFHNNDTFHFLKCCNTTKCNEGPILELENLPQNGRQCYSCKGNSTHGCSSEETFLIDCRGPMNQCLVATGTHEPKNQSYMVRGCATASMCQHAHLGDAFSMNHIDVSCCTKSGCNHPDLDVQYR
Experiment: BLI (Octet) off-rate screen of scFv clones
Friendly reminder: koff below 0.004 s⁻¹ is 1, at or above is 0.

# binder, group
measured = [
    ("suPAR_DB05_E04 (scFv, V domains shown, Screened as scFv) VH: QVQLVQSGAEVKKPGASVKVSCKASGYSFTSNYMHWVRQAPGQGLEWMGWIDHENGNTIYDQKFQGRVTMTRDTSTSTVYMELSSLRSEDTAVYYCARGYDVDWFVYWGQGTLVTVSS VL: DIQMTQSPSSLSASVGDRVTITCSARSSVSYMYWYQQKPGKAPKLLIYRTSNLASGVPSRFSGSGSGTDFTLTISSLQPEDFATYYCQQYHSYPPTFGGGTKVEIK", 0),
    ("suPAR_DB05_D05 (scFv, V domains shown, Screened as scFv) VH: QVQLVQSGAEVKKPGASVKVSCKASGYTFTNYYMHWVRQAPGQGLEWMGWIDHSNGSTIYDQKFQGRVTMTRDTSTSTVYMELSSLRSEDTAVYYCARGYDVDWFVYWGQGTLVTVSS VL: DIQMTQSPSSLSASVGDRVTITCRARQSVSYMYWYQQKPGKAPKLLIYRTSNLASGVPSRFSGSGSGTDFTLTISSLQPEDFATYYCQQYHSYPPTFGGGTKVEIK", 1),
    ("suPAR_DB04_H08 (scFv, V domains shown, Screened as scFv) VH: QVQLVQSGAEVKKPGASVKVSCKASGYTFSDYYIHWVRQAPGQGLEWMGWISPKSGVTNYAQKFQGRVTMTRDTSTSTVYMELSSLRSEDTAVYYCARGYDVDWFVYWGQGTLVTVSS VL: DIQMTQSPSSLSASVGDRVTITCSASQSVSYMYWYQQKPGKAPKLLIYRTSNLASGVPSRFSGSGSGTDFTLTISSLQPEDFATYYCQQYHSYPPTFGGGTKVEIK", 1),
    ("suPAR_DB05_A07 (scFv, V domains shown, Screened as scFv) VH: QVQLVQSGAEVKKPGASVKVSCKASGYTFTNYYMQWVRQAPGQGLEWMGWIDHENGNTIYAQKFQGRVTMTRDTSTSTVYMELSSLRSEDTAVYYCARGYDVDWFVYWGQGTLVTVSS VL: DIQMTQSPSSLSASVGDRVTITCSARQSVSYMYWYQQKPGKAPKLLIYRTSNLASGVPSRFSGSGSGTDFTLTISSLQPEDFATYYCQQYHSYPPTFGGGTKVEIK", 0),
    ("suPAR_DB05_A05 (scFv, V domains shown, Screened as scFv) VH: QVQLVQSGAEVKKPGASVKVSCKASGYTFTNYYMHWVRQAPGQGLEWMGWIDPSGGSTSYAQKFQGRVTMTRDTSTSTVYMELSSLRSEDTAVYYCARGYDVDWFVYWGQGTLVTVSS VL: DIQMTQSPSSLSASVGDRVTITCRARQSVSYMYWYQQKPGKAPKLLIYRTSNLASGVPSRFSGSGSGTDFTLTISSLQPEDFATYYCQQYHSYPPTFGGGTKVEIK", 0),
    ("suPAR_DB05_E05 (scFv, V domains shown, Screened as scFv) VH: QVQLVQSGAEVKKPGASVKVSCKASGYNFTNYYMHWVRQAPGQGLEWMGWIDHSNGSTIYDQKFQGRVTMTRDTSTSTVYMELSSLRSEDTAVYYCARGYDVDWFVYWGQGTLVTVSS VL: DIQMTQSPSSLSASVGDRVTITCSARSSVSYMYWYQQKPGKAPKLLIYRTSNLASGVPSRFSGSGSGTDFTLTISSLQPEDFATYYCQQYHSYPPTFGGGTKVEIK", 1),
    ("suPAR_DB05_E01 (scFv, V domains shown, Screened as scFv) VH: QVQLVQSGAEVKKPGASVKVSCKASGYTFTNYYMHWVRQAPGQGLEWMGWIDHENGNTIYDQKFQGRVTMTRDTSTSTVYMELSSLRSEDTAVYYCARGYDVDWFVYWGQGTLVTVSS VL: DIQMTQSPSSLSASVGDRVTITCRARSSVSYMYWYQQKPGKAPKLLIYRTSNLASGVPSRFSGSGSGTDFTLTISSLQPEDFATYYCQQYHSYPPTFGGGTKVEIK", 1),
    ("suPAR_DB05_B04 (scFv, V domains shown, Screened as scFv) VH: QVQLVQSGAEVKKPGASVKVSCKASGYTFTTYYMHWVRQAPGQGLEWMGWIDPSNGNTIYDQKFQGRVTMTRDTSTSTVYMELSSLRSEDTAVYYCARGYDVDWFVYWGQGTLVTVSS VL: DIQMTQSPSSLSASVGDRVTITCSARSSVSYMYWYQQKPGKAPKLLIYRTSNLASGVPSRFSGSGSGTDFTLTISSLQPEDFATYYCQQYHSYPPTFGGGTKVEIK", 0),
    ("suPAR_DB05_B03 (scFv, V domains shown, Screened as scFv) VH: QVQLVQSGAEVKKPGASVKVSCKASGYTFTSYYIHWVRQAPGQGLEWIGWMDPNSGSAAYAQKFQGRVTMTRDTSTSTVYMELSSLRSEDTAVYYCARGYDVDWFVYWGQGTLVTVSS VL: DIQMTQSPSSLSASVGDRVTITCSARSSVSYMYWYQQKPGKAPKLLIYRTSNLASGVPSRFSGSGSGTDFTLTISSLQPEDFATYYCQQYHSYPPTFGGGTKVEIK", 1),
    ("suPAR_DB05_C04 (scFv, V domains shown, Screened as scFv) VH: QVQLVQSGAEVKKPGASVKVSCKASGFNIKDYYIHWVRQAPGQGLEWMGWIDPENGNTIYDQKFQGRVTMTRDTSTSTVYMELSSLRSEDTAVYYCARGYDVDWFVYWGQGTLVTVSS VL: DIQMTQSPSSLSASVGDRVTITCSARQSVSYMYWYQQKPGKAPKLLIYRTSNLQSGVPSRFSGSGSGTDFTLTISSLQPEDFATYYCQQYHSYPPTFGGGTKVEIK", 0),
]
